# maps each entry to its pKi
target: Coagulation factor X (Homo sapiens); assay: Inhibition of factor 10a
Sequence (P00742 41-179 limits assumed): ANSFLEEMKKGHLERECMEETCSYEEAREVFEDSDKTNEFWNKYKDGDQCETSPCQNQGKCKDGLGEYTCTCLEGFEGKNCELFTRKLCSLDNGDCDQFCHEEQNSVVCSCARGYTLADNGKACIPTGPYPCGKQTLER
Sequence (P00742 235-488 limits assumed): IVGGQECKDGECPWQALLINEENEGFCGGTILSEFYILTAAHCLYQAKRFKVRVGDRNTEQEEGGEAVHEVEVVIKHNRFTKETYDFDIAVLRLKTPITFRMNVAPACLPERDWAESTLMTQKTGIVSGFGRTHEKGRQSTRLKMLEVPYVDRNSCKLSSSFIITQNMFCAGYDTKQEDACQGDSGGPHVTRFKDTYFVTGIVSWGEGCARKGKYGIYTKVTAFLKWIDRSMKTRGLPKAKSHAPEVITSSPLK
pKi: −log10 of the molar value.

- COMPOUND: "CN1C(=O)C(Cc2ccc(C(=N)N)cc2)Oc2cc(NC(=O)C(Cc3ccccc3)C(=O)O)ccc21 (centres undefined)"
  ASSAYED_TARGET: "Coagulation factor X (Homo sapiens)"
  pKi: 4.48
- COMPOUND: "COC(=O)C(Cc1ccccc1)C(=O)Nc1ccc2c(c1)OC(Cc1ccc(C(=N)N)cc1)C(=O)N2C (centres undefined)"
  ASSAYED_TARGET: "Coagulation factor X (Homo sapiens)"
  pKi: 4.23
- COMPOUND: "CCOC(=O)C(=O)N(Cc1ccccc1)c1ccc2c(c1)OC(Cc1ccc(C(=N)N)cc1)C(=O)N2C (centres undefined)"
  ASSAYED_TARGET: "Coagulation factor X (Homo sapiens)"
  pKi: 5.71
- COMPOUND: "CN1C(=O)C(Cc2ccc(C(=N)N)cc2)Oc2cc(N(Cc3ccccc3)C(=O)CC(=O)O)ccc21 (centres undefined)"
  ASSAYED_TARGET: "Coagulation factor X (Homo sapiens)"
  pKi: 3.86

Hey, just so you know, these numbers are from ChEMBL document CHEMBL1150268.
